The values you see were collected from PubChem BioAssay (NCI).

Test system: NCI-H522 lung
Assay: NCI tumour cell line growth inhibition, 48 h
I'd appreciate it if you could supply TGI values for the items below.

Here's what some known entries look like.
{"compound": "Cc1cc([C@@H](C)Nc2ccccc2C(=O)O)c2nc(N3CCOCC3)cc(=O)n2c1", "TGI": "> 10 µM"}
{"compound": "COC(=O)C1(Cc2ccccc2)Cc2cc3c(cc2C1=O)CCC3 (stereo unspecified)", "TGI": "64.2 µM"}
{"compound": "O=C(Nc1ccc(I)cc1C(=O)NCCO)c1cccs1", "TGI": "> 100 µM"}
{"compound": "C#Cc1cnc(=O)n(C2CC(O)C(CO)O2)c1 (stereo unspecified)", "TGI": "> 100 µM"}
{"compound": "C=CCN(CC=C)Cn1c(=S)sc2ccccc21", "TGI": "37.7 µM"}

Go through the list and state TGI for each entry.
1. COc1ccc2c(c1)c1c(n2CCN2CCOCC2)-c2ccccc2CC1
2. CC[C@@H]1CC[C@@H]2[C@H](CC[C@]3(C)[C@@H](O)CC[C@@H]23)[C@H]1C(=O)O
3. Cc1c(S(=O)(=O)c2ccccc2)c(N)n(Cc2ccccc2)c1C
4. CC(=O)c1ccc(Nc2cc(-c3ccccc3)nc3c(O)cccc23)cc1
5. O=C(CCN1CCN(c2cnc3ccccc3n2)CC1)c1csc2ccccc12

[out]
1. > 100 µM
2. > 100 µM
3. > 100 µM
4. 9.64 µM
5. 42.8 µM

Go through the list and state TGI for each entry.
1. c1sc(NC2=NCCO2)c2c1CCCC2
2. Cc1ccccc1C(C#N)C(=O)C(=O)Nc1nc([N+](=O)[O-])cs1 (stereo unspecified)

[out]
1. > 100 µM
2. > 100 µM

Go through the list and state TGI for each entry.
1. Nc1nc(Cl)cc(NCC2(CO)CC(CCc3ccccc3)C2)n1 (stereo unspecified)
2. N#CC(=C1SCS1)[N+](=O)[O-]
3. O=c1c2ccccc2[nH]c(=S)n1-c1ccc(N=Nc2cccc3c(O)cccc23)cc1

[out]
1: > 100 µM; 2: 2.08 µM; 3: > 100 µM

Go through the list and state TGI for each entry.
1. COc1ccc(/C(=C/n2ccnc2)C(=O)c2ccc(OC)c(OC)c2)cc1
2. Cc1cn(C2C=CC(COP(=O)(OCC3=CC(=O)c4ccccc4C3=O)N(C)CCCCCl)O2)c(=O)[nH]c1=O (stereo unspecified)
3. O=C(Nc1cccc(-n2ccc3c(NC(=O)c4ccccc4)nccc32)c1)c1cccc(C(F)(F)F)c1
4. Cc1c(/C=N\NC(=S)N2CCN(C(=S)N/N=C\c3c(C)n(C)n(-c4ccccc4)c3=O)CC2)c(=O)n(-c2ccccc2)n1C
5. COc1ccc(N2C(=O)C3c4[nH]c5ccc([N+](=O)[O-])cc5c4C4CCC(C(C)(C)C)CC4C3C2=O)cc1 (stereo unspecified)
6. COc1ccc(-c2nn(-c3cccc(Cl)c3)cc2C2CC(c3ccccc3)=NN2C(C)=O)cc1 (stereo unspecified)

[out]
1. > 100 µM
2. 29.4 µM
3. 0.0759 µM
4. > 100 µM
5. > 100 µM
6. > 100 µM

====

I'd appreciate it if you could supply TGI values for the items below.
System: OVCAR-8 ovarian
Experiment: NCI tumour cell line growth inhibition, 48 h

Here's what some known entries look like.
{"compound": "CCn1c(-c2nonc2N)nc2c(C#CCN)ncc(OCCCN)c21", "target": "OVCAR-8 ovarian", "measured parameter": "TGI", "value reported": "> 25 µM"}
{"compound": "COc1ccc(-c2nn(-c3cccc(Cl)c3)cc2C2CC(c3ccccc3)=NN2C(C)=O)cc1 (stereo not given)", "target": "OVCAR-8 ovarian", "measured parameter": "TGI", "value reported": "> 100 µM"}

Go through the list and state TGI for each entry.
1. COc1ccc(N2C(=O)C3c4[nH]c5ccc([N+](=O)[O-])cc5c4C4CCC(C(C)(C)C)CC4C3C2=O)cc1 (stereo not given)
2. Cc1ccc2c(C(C[N+](=O)[O-])c3cccs3)c(-c3ccccc3)[nH]c2c1 (stereo not given)
3. O=C(C#Cc1c[nH]c(=O)[nH]c1=O)c1ccccc1Cl

[out]
> 100 µM
> 33.3 µM
29.3 µM
